This collection of values is drawn from ChEMBL document CHEMBL4414596.

tested on: Bacillus subtilis; experiment: Antibacterial activity against Bacillus subtilis after 24 hrs by broth microdilution method; assay type: functional
Give measured MIC for each item. Keep answers brief.
One number for each entry, in µg/mL.

Take a look at these entries with their results.
O=C(N[C@H](CO)[C@H](O)c1ccc([N+](=O)[O-])cc1)C(Cl)Cl
5
C/C(=C\CC[C@@H](C)[C@H]1C[C@@H](O)[C@@]2(C)[C@@H]3CC[C@H]4C(C)(C)C(=O)CC[C@@]45C[C@@]35CC[C@]12C)C(=O)O
5

Note: attention shifts to another entry.
IN: Report the value of MIC obtained on Bacillus subtilis for CO[C@@H]1CC[C@]23C[C@]24CC[C@]2(C)[C@@H]([C@H](C)CC/C=C(\C)C(=O)O)[C@@H](O)[C@@H](O)[C@@]2(C)[C@@H]4CC[C@H]3C1(C)C .
OUT: 20

---

tested on: Bacillus subtilis; experiment: Antibacterial activity against Bacillus subtilis after 24 hrs by broth microdilution method; format: functional
READOUT TYPE: MIC

C/C(=C\CC[C@@H](C)[C@H]1[C@@H](O)[C@@H](O)[C@@]2(C)[C@@H]3CC[C@H]4C(C)(C)C(=O)CC[C@@]45C[C@@]35CC[C@]12C)C(=O)O
> 40 µg/mL
C/C(=C\[C@@H](O)C[C@@H](C)[C@H]1CC[C@@]2(C)[C@@H]3CC[C@H]4C(C)(C)[C@@H](O)CC[C@@]45C[C@@]35CC[C@]12C)C(=O)O
20 µg/mL
CO[C@@H]1CC[C@]23C[C@]24CC[C@]2(C)[C@@H]([C@H](C)CC/C=C(\C)C(=O)O)C[C@@H](O)[C@@]2(C)[C@@H]4CC[C@H]3C1(C)C
20 µg/mL
C/C(=C\CC[C@@H](C)[C@H]1C[C@@H](O)[C@@]2(C)[C@@H]3CC[C@H]4C(C)(C)[C@H](O)CC[C@@]45C[C@@]35CC[C@]12C)C(=O)O
10 µg/mL
C/C(=C\CC[C@@H](C)[C@H]1CC[C@@]2(C)[C@@H]3CC[C@H]4C(C)(C)[C@@H](O)CC[C@@]45C[C@@]35CC[C@]12C)C(=O)O [MANGIFEROLIC ACID]
> 40 µg/mL

Items follow; give MIC for each.
1. C[C@H](CC[C@@H](O)C(C)(C)O)[C@H]1CC[C@@]2(C)[C@@H]3CC[C@H]4C(C)(C)C(=O)CC[C@@]45C[C@@]35CC[C@]12C
2. CC1(C)S[C@@H]2[C@H](NC(=O)[C@H](N)c3ccccc3)C(=O)N2[C@H]1C(=O)O [AMPICILLIN]

OUT:
["> 40 µg/mL", "> 40 µg/mL"]

Items follow; give MIC for each.
1. C/C(=C\CC[C@@H](C)[C@H]1CC[C@@]2(C)[C@@H]3CC[C@H]4C(C)(C)[C@H](O)CC[C@@]45C[C@@]35CC[C@]12C)C(=O)O [ISOMANGIFEROLIC ACID]
2. C/C(=C\CC[C@@H](C)[C@H]1C[C@@H](O)[C@@]2(C)[C@@H]3CC[C@H]4C(C)(C)[C@@H](O)CC[C@@]45C[C@@]35CC[C@]12C)C(=O)O
3. CC1=CC(O)(C[C@@H](C)[C@H]2CC[C@@]3(C)C4=C(CC[C@]23C)[C@@]2(C)CCC(=O)C(C)(C)[C@@H]2CC4)OC1=O (stereo partly specified)
4. C/C(=C\[C@@H](O)C[C@@H](C)[C@H]1CC[C@@]2(C)C3=C(CC[C@]12C)[C@@]1(C)CCC(=O)C(C)(C)[C@@H]1CC3)C(=O)O

OUT:
1. > 40 µg/mL
2. 10 µg/mL
3. > 40 µg/mL
4. 10 µg/mL

---

system: Bacillus subtilis; assay: Antibacterial activity against Bacillus subtilis after 24 hrs by broth microdilution method; format: functional
Give measured MIC for each item. Keep answers brief.

CC1=C[C@@H](C[C@@H](C)[C@H]2CC[C@@]3(C)[C@@H]4CC[C@H]5C(C)(C)[C@@H](O)CC[C@@]56C[C@@]46CC[C@]23C)OC1=O
> 40 µg/mL
CC1=C[C@@H](C[C@@H](C)[C@H]2C[C@@H](O)[C@@]3(C)[C@@H]4CC[C@H]5C(C)(C)[C@H](O)CC[C@@]56C[C@@]46CC[C@]23C)OC1=O
> 40 µg/mL
C=C1CC[C@@](C)([C@H](C)CC(=O)C[C@@H](C)C(=O)O)[C@@]12CCC1=C2CC[C@H]2C(C)(C)C(=O)CC[C@]12C
10 µg/mL
C=C1CC[C@@](C)([C@H](C)CC(=O)[C@H]2CC(CCC=C(C)C)=CC[C@]2(C)C(=O)O)[C@@]12CCC1=C2CC[C@H]2C(C)(C)[C@@H](O)CC[C@]12C
> 40 µg/mL
CO[C@@H]1CC[C@]23C[C@]24CC[C@]2(C)[C@@H]([C@H](C)C[C@H](O)/C=C(\C)C(=O)O)CC[C@@]2(C)[C@@H]4CC[C@H]3C1(C)C
> 40 µg/mL

Note: attention shifts to another entry.
IN: Fill in MIC for record C[C@H](CC[C@H](O)[C@](C)(O)CO)[C@H]1CC[C@@]2(C)[C@@H]3CC[C@H]4C(C)(C)[C@@H](O)CC[C@@]45C[C@@]35CC[C@]12C (relative stereo)
OUT: > 40 µg/mL

---

system: Escherichia coli; experiment: Antibacterial activity against Escherichia coli after 24 hrs by broth microdilution method; type: functional
READOUT TYPE: MIC

CC1=CC(O)(C[C@@H](C)[C@H]2CC[C@@]3(C)C4=C(CC[C@]23C)[C@@]2(C)CCC(=O)C(C)(C)[C@@H]2CC4)OC1=O (stereo partly specified)
> 40 µg/mL
C/C(=C\CC[C@@H](C)[C@H]1C[C@@H](O)[C@@]2(C)[C@@H]3CC[C@H]4C(C)(C)[C@H](O)CC[C@@]45C[C@@]35CC[C@]12C)C(=O)O
> 40 µg/mL
CC1=C[C@@H](C[C@@H](C)[C@H]2C[C@@H](O)[C@@]3(C)[C@@H]4CC[C@H]5C(C)(C)[C@H](O)CC[C@@]56C[C@@]46CC[C@]23C)OC1=O
> 40 µg/mL
O=C(N[C@H](CO)[C@H](O)c1ccc([N+](=O)[O-])cc1)C(Cl)Cl
> 40 µg/mL
C/C(=C\CC[C@@H](C)[C@H]1C[C@@H](O)[C@@]2(C)[C@@H]3CC[C@H]4C(C)(C)C(=O)CC[C@@]45C[C@@]35CC[C@]12C)C(=O)O
> 40 µg/mL

Note: attention shifts to another entry.
IN: Fill in MIC for record CN[C@@H]1[C@H](O[C@H]2[C@H](O[C@H]3[C@H](O)[C@@H](O)[C@H](N=C(N)N)[C@@H](O)[C@@H]3N=C(N)N)O[C@@H](C)[C@]2(O)C=O)O[C@@H](CO)[C@H](O)[C@H]1O
OUT: 5 µg/mL
